subject_of_test: Protein disulfide-isomerase (Homo sapiens)
protocol_details: inhibitors of human PDI, primary screen, biochemical, turbidity, single point, plate reader (AID 588391);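 further: absorbance from insulin aggregation driven by PDI reduction with DTT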
experimental_setup: PDI insulin aggregation turbidity, A650, 90 min; at 10 µM
Screen size: about 350,000 compounds; about 180 (0.051%) were called active.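 How the source made its calls: active means mean inhibition across replicates of 30% or more, whatever share of single replicates reach that level; inconclusive means mean inhibition below 30% while every single replicate reaches 30%; inactive means the rest.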 For the sample, actives were picked, then their nearest neighbours and some compounds at random.
Select the matching outcome among active, inactive

Record excerpt, results attached:
compound	class_label
CCCNC(=O)c1cc(C2CCCCN2C(=O)OC)on1 (stereo unspecified)	inactive
CCOc1cc(N2CCOCC2)c(OCC)cc1NC(=O)c1ccc(C)s1	inactive
O=C1N=C(N2CCc3ccccc3C2)S/C1=C\c1ccc(O)cc1	inactive

In: Which outcome was entered for the compound CC1(C(=O)NCc2ccc(F)c(F)c2)Cc2c(-c3ccc4c(c3)OCO4)ccnc2O1 (stereo unspecified) in this test?
Out: inactive

In: Which outcome was entered for the compound CC(=O)Nc1cccc(-c2cc3nc(NCc4cccnc4)n(C)c(=O)c3s2)c1 in this test?
Out: inactive

In: Which outcome was entered for the compound CCOc1cc(N2CCOCC2)c(OCC)cc1NC(=O)COC(=O)[C@H](Cc1c[nH]c2ccccc12)NC(C)=O in this test?
Out: active
